// Euclidean distance lookup, one value per entry
Tested on: HEPG2
Assay: Euclidean distance of Cell Painting phenotypic profile (signed KS, 77 features) to DMSO centroid (dimensionless distance); 5 or 10 uM (library dependent); higher = stronger phenotypic change vs DMSO (phenoactivity)
Conditions: 48 h
readout.kind: Euclidean distance

[
  {
    "compound": "CC(=O)O[C@@H]1CC[C@@]2(C)[C@@H](CC[C@]3(C)[C@@H]2C(=O)C=C2[C@@H]4[C@@H](C)[C@H](C)CC[C@]4(C)CC[C@]23C)[C@@]1(C)C(=O)O",
    "readout.kind": "Euclidean distance",
    "numeric.readout": 0.732
  },
  {
    "compound": "Oc1c(I)cc(Cl)c2cccnc12 [Clioquinol]",
    "readout.kind": "Euclidean distance",
    "numeric.readout": 0.894
  },
  {
    "compound": "CC(=O)NCCCS(=O)(=O)O [Acamprosate Calcium]",
    "readout.kind": "Euclidean distance",
    "numeric.readout": 0.967
  },
  {
    "compound": "OCCOCCN1CCN(C(c2ccccc2)c2ccc(Cl)cc2)CC1 (stereo unspecified) [Hydroxyzine 2HCl]",
    "readout.kind": "Euclidean distance",
    "numeric.readout": 1.04
  },
  {
    "compound": "CCCc1nn(C)c2c(=O)[nH]c(-c3cc(S(=O)(=O)N4CCN(C)CC4)ccc3OCC)nc12 [Sildenafil]",
    "readout.kind": "Euclidean distance",
    "numeric.readout": 0.767
  },
  {
    "compound": "CC[C@]12CCCN3CCc4c(n(c5ccccc45)[C@@](O)(C(=O)OC)C1)[C@@H]32 [Vincamine]",
    "readout.kind": "Euclidean distance",
    "numeric.readout": 0.91
  }
]
